# polymerase ribozyme fitness (log ratio) annotations
B1: TPR 5TU (parent)
chain: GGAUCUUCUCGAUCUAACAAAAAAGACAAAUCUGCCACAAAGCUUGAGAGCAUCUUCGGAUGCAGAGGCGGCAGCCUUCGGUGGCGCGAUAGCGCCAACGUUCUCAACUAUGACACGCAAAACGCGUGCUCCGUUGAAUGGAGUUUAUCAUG

variants of: B1; assay: polymerase ribozyme fitness, log enrichment relative to wild type (log ratio); higher = more active; in vitro selection for triplet polymerase activity
Fewer inactive variants are shown than the library holds.

[[record]]
mutation_descriptor = "C18G U31G A52G G80C U101C U127G"
measurement = "≤ -4.2"

[[record]]
mutation_descriptor = "U9A C27U C36A G42C C69A G80A G136U G141C"
measurement = "≤ -4.2"

[[record]]
mutation_descriptor = "U6C C18U G59C A66U A73C U101G U139C U144A"
measurement = "≤ -4.2"

[[record]]
mutation_descriptor = "C8U C18G G50C G58U A73G C76A C93A C116A A120C"
measurement = "≤ -4.2"

[[record]]
mutation_descriptor = "C10G C57G G92C A113C G133A"
measurement = "≤ -4.2"

[[record]]
mutation_descriptor = "C32U U44A G50U U78C G83U A120G"
measurement = "≤ -4.2"

[[record]]
mutation_descriptor = "C18U C76A U127G A137C"
measurement = "≤ -4.2"

[[record]]
mutation_descriptor = "A24C A40U G94A C116A"
measurement = "≤ -4.2"

[[record]]
mutation_descriptor = "C36A G67C G68C A73U C87A U148C"
measurement = "≤ -4.2"

[[record]]
mutation_descriptor = "G81U C85U"
measurement = -0.466


[Q] Quick check: polymerase ribozyme fitness (log ratio) of A17G G84A ?
[A] -0.469

[Q] Which value of polymerase ribozyme fitness (log ratio) has been reported for G92U A138G in the records?
[A] -3.48

[Q] So what's the measured polymerase ribozyme fitness (log ratio) for this one? C96G A98U
[A] -0.873

[Q] Find the recorded polymerase ribozyme fitness (log ratio) belonging to A39C C76G A137C and report it.
[A] ≤ -4.2

[Q] Query: polymerase ribozyme fitness (log ratio); subject: A16G A28C C36A U44A G48C A49C C76G U77C A91U C103G
[A] ≤ -4.2

[Q] // returns reported polymerase ribozyme fitness (log ratio) for input A12C A30G C38A C51A U56G C85G C95U A106G U111A
[A] ≤ -4.2

[Q] Requested read-out: polymerase ribozyme fitness (log ratio). Entry: A21U C35U C129U
[A] -0.6

[Q] Would you kindly share the measured polymerase ribozyme fitness (log ratio) for U31G C79U U90G A106G C108A A137C ?
[A] ≤ -4.2
